Below, each of the compounds is paired with its reported viability, T/C value.
- Tested on: MPNST complex spheroid with HUVEC/MSC, growth, % test/control
- PROTOCOL_SUMMARY: Anticancer human tumor MPNST cell line growth inhibition [Asc];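 also: compounds left on spheroids for seven days before reading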
- CONDITION_SUMMARY: second compound 0.03 µM; first compound 0.0316 µM; active compounds read low
Kindly provide the numeric value in % only, without the unit symbol.

Worked cases, answers included:
COMPOUND: C#Cc1c(F)ccc2cc(O)cc(-c3ncc4c(N5CC6CCC(C5)N6)nc(OCC56CCCN5CC(F)C6)nc4c3F)c12 (stereo not given) + CCN1C(C(=O)NC23CCC(C(=O)O)(CC2)CC3)C(c2cccc(Cl)c2F)C2(C(=O)Nc3cc(Cl)ccc32)C12CCCCC2
UNITS_OF_MEASURE: %
REPORTED_RESULT: 71.3
//
COMPOUND: O=C(c1cc(Cc2n[nH]c(=O)c3ccccc23)ccc1F)N1CCN(C(=O)C2CC2)CC1 + CCN1C(C(=O)NC23CCC(C(=O)O)(CC2)CC3)C(c2cccc(Cl)c2F)C2(C(=O)Nc3cc(Cl)ccc32)C12CCCCC2
UNITS_OF_MEASURE: %
REPORTED_RESULT: 122

Task: Respond only with viability, T/C recorded for NC1CCC(NC2CC2c2ccccc2)CC1 (stereo not given) + CCN1C(C(=O)NC23CCC(C(=O)O)(CC2)CC3)C(c2cccc(Cl)c2F)C2(C(=O)Nc3cc(Cl)ccc32)C12CCCCC2
Result: 87

Task: Look up and state reported viability, T/C for O=C(c1ccc(F)c(F)c1Nc1ccc(I)cc1F)N1CC(O)([C@@H]2CCCCN2)C1 + CCN1C(C(=O)NC23CCC(C(=O)O)(CC2)CC3)C(c2cccc(Cl)c2F)C2(C(=O)Nc3cc(Cl)ccc32)C12CCCCC2
Result: 72.2

Task: Write down viability, T/C measured for item Cn1ncnc1[C@H]1c2n[nH]c(=O)c3cc(F)cc(c23)N[C@@H]1c1ccc(F)cc1 + CCN1C(C(=O)NC23CCC(C(=O)O)(CC2)CC3)C(c2cccc(Cl)c2F)C2(C(=O)Nc3cc(Cl)ccc32)C12CCCCC2
Result: 54.4

Task: Kindly indicate its recorded viability, T/C. Item: CNC(C)C(=O)NC1CN(S(=O)(=O)c2cccc(S(=O)(=O)N3CCC4CCC(C(=O)NC(c5ccccc5)c5ccccc5)N4C(=O)C(NC(=O)C(C)NC)C3)c2)CCC2CCC(C(=O)NC(c3ccccc3)c3ccccc3)N2C1=O (stereo not given) + CCN1C(C(=O)NC23CCC(C(=O)O)(CC2)CC3)C(c2cccc(Cl)c2F)C2(C(=O)Nc3cc(Cl)ccc32)C12CCCCC2
Result: 94.7

Task: Annotate the compound COc1c(OCCCN2CCOCC2)ccc2c3n(c(=NC(=O)c4cnc(N)nc4)nc12)CCN3 + CCN1C(C(=O)NC23CCC(C(=O)O)(CC2)CC3)C(c2cccc(Cl)c2F)C2(C(=O)Nc3cc(Cl)ccc32)C12CCCCC2 with its measured viability, T/C.
Result: 47

Task: Fill in viability, T/C for record CCN1CCN(Cc2ccc(Nc3ncc(F)c(-c4cc(F)c5nc(C)n(C(C)C)c5c4)n3)nc2)CC1 + CCN1C(C(=O)NC23CCC(C(=O)O)(CC2)CC3)C(c2cccc(Cl)c2F)C2(C(=O)Nc3cc(Cl)ccc32)C12CCCCC2
Result: 88.7

Task: Give the reported viability, T/C for this compound. C=C(F)C(=O)N1CCN(c2nc(OCC3CCCN3C)nc3c2CCN(c2cccc4cccc(Cl)c24)C3)CC1CC#N (stereo not given) + CCN1C(C(=O)NC23CCC(C(=O)O)(CC2)CC3)C(c2cccc(Cl)c2F)C2(C(=O)Nc3cc(Cl)ccc32)C12CCCCC2
Result: 56.3

Task: Return viability, T/C (reported value) for this compound: C=CC(=O)N1CCN(c2nc(=O)n(-c3c(C)ccnc3C(C)C)c3nc(-c4c(O)cccc4F)c(F)cc23)C(C)C1 (stereo not given) + CCN1C(C(=O)NC23CCC(C(=O)O)(CC2)CC3)C(c2cccc(Cl)c2F)C2(C(=O)Nc3cc(Cl)ccc32)C12CCCCC2
Result: 62.4
